Reported pKd is given for each of the following molecules.
- assay-target: VHL (co-expressed with Elongin B and Elongin C) (Homo sapiens (Human), UniProt P40337)
- Sequence (P40337 whole entry, looked up): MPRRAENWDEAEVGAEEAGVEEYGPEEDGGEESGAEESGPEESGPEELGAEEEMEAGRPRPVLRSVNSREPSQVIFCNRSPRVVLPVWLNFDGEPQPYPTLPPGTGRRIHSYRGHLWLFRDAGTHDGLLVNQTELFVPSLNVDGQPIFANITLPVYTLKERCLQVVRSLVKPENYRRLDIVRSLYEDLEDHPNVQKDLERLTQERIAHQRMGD
- Sequence (Q15370 whole entry partner, looked up): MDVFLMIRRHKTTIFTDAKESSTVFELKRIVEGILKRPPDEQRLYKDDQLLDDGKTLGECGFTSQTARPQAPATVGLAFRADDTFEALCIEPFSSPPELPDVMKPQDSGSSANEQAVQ
- Sequence (Q15369 whole entry partner, looked up): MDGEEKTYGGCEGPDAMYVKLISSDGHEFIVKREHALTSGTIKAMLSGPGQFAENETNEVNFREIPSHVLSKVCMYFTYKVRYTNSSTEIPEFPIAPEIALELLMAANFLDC
- experimental-protocol: Measurement of intermolecular interactions using surface plasmon resonance (Biacore T200), Kd value for VHL
- Type: binding
- test-context: SPR, immobilized VHL, 25° C.; read-out: Kd
pKd: −log10 of the molar value.

COc1cc(C(C(=O)N2C[C@H](O)C[C@H]2c2nc(C(=O)N3CC(c4ccccc4)C3)c[nH]2)C(C)C)on1 (stereo partly shown)    > 6.00
CC(=O)N[C@H](C(=O)N1C[C@H](O)C[C@H]1c1nc(C(=O)N(C)Cc2ccc(F)cc2)c[nH]1)C(C)(C)C    5.00 to 6.00
CC(=O)N[C@H](C(=O)N1C[C@H](O)C[C@H]1c1nc(C(=O)N(C)Cc2cccnc2)c[nH]1)C(C)(C)C    5.00 to 6.00
COc1cc(C(C(=O)N2C[C@H](O)C[C@H]2c2nccn2Cc2ccccc2OCc2ccccc2)C(C)C)on1 (stereo partly shown)    4.30 to 5.00
CC(=O)N[C@H](C(=O)N1C[C@H](O)C[C@H]1c1ncc(Cc2ccc(Br)cc2)[nH]1)C(C)(C)C    5.00 to 6.00
COc1cc(C(C(=O)N2C[C@H](O)C[C@H]2c2nc(C(=O)N(C)Cc3ccc(-c4ccc(C)nc4)cc3)c[nH]2)C(C)C)on1 (stereo partly shown)    > 6.00

Shift focus to the following entry.
Consider the molecule shown here: CNC(=O)c1cccc(-c2cnc([C@@H]3C[C@@H](O)CN3C(=O)C(c3cc(OC)no3)C(C)C)[nH]2)c1 (stereo partly shown) What is its recorded pKd?
5.00 to 6.00

====

Each item that follows carries a reported Kd.
- assay-target: VHL (co-expressed with Elongin B and Elongin C) (Homo sapiens (Human))
- experimental-protocol: Measurement of intermolecular interactions using surface plasmon resonance (Biacore T200), Kd value for VHL
- Type: binding
- test-context: SPR, immobilized VHL, 25° C.; read-out: Kd

Please review the following examples before continuing.
CC(=O)N[C@H](C(=O)N1C[C@H](O)C[C@H]1c1nc(C(=O)N(C)Cc2ccc(-c3scnc3C)cc2)c[nH]1)C(C)(C)C [Example 35]    1 to 10 µM
COc1cc(C(C(=O)N2C[C@H](O)C[C@H]2c2nccn2Cc2cncc(-c3ccc(F)cc3)c2)C(C)C)on1 (stereo partly shown) [Example 113]    10 to 50 µM
CC(=O)N[C@H](C(=O)N1C[C@H](O)C[C@H]1c1nc(C(=O)N(C)Cc2ccccn2)c[nH]1)C(C)(C)C [Example 48]    1 to 10 µM
COc1cc(C(C(=O)N2C[C@H](O)C[C@H]2c2nc(C(=O)N3CCCC(C(=O)Nc4ccccc4)C3)c[nH]2)C(C)C)on1 (stereo partly shown) [Example 148]    1 to 10 µM
CC(=O)N[C@H](C(=O)N1C[C@H](O)C[C@H]1c1nc(C(=O)N(C)Cc2ccc(Cl)cc2)c[nH]1)C(C)(C)C [Example 16]    1 to 10 µM

Lab note: need Kd with VHL (co-expressed with Elongin B and Elongin C) (Homo sapiens (Human)) for entry CC(=O)N[C@H](C(=O)N1C[C@H](O)C[C@H]1c1nc(C(=O)N(C)Cc2ccccc2C(F)(F)F)c[nH]1)C(C)(C)C [Example 20] , please look it up.
1 to 10 µM

Give the reported Kd for COc1cc(C(C(=O)N2C[C@H](O)C[C@H]2c2nc(C(=O)N(C)CCNc3ccccc3)c[nH]2)C(C)C)on1 (stereo partly shown) [Example 158] (system: VHL (co-expressed with Elongin B and Elongin C) (Homo sapiens (Human))).
< 1 µM
